TESTED_ON: endothelial lipase (EL) (Homo sapiens)
Construct: made in house; host or cells: recombinant cell lines (CHO, HEK293); concentrated conditioned medium used as enzyme solution
Sequence (Q9Y5X9 21-500): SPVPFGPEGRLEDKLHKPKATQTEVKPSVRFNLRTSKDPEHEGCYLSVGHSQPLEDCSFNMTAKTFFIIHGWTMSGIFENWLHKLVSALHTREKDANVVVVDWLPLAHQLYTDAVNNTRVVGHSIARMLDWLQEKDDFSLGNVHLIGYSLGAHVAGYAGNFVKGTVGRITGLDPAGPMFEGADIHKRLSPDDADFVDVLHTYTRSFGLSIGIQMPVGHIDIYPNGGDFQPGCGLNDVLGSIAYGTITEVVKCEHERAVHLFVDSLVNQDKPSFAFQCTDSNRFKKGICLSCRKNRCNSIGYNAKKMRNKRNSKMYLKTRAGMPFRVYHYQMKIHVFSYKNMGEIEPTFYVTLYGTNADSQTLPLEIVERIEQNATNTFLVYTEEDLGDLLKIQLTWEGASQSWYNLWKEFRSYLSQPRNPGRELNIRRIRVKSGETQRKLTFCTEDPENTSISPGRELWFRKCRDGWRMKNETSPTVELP
EXPERIMENTAL_DETAILS: EL inhibition assay (EL activity assay, fluorescent Bodipy-labelled phospholipid substrate)
Assay type: biochemical
EXPERIMENTAL_CONTEXT: enzyme solution = conditioned medium of recombinant cell lines (CHO, HEK293); 37° C., 90 minutes; pH=7.4
QUANTITY_KIND: IC50 (µM)
Give your result in µM as a bare value.

Solved cases below.
Cc1ccccc1CNC(=O)N1C(=O)C2Cc3ccccc3CN2C1=O (stereo not shown) [Example 29] :: 0.143
O=C1CN(Cc2ccccc2)C(=O)N1C(=O)N[C@@H]1CCc2ccccc21 [Example 4] :: 0.0005
Cc1ccccc1CNC(=O)N1C(=O)CN(Cc2ccccc2)C1=O [Example 2] :: 0.147

So what's the measured IC50 for this one? O=C1CN(Cc2ccccc2)C(=O)N1C(=O)N[C@H]1CCc2ccccc21 [Example 3]
0.145

What does the data say about its IC50? Entry: O=C(NC1CCCc2ccccc21)N1C(=O)C2Cc3ccccc3CN2C1=O (stereo not shown) [Example 28]
0.059

I have this compound here, O=C1CN(Cc2ccccc2)C(=O)N1C(=O)NC1CCCc2ccccc21 (stereo not shown) [Example 5] , and I need its recorded IC50.
0.008

Can you share its IC50? I mean this compound: O=C1CN(Cc2ccccc2)C(=O)N1C(=O)NCCc1cccs1 [Example 6]
0.143

Data provenance is patent US8735437B2.
